TARGET_UNDER_TEST: T1, cyno CD33 extracellular domain (Cynomolgus/Rhesus (cyno))
T1 construct: soluble monomeric ECD; also called cyno CD33 ECD
TEST_SUMMARY: SPR, Fab captured, 37C;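 note: surface plasmon resonance with Fabs captured on anti-Fab surface, soluble monomeric CD33 as analyte at several concentrations, double-referenced 1:1 model fit, KD as koff/kon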
MEASURED_PARAMETER: kon (M⁻¹ s⁻¹)
Just the number please, in M⁻¹ s⁻¹, no unit attached.

Qu. Tell me measured kon for ADI-11819 Fab (Fab, V domains shown, Fab fragment; also called Ab8) VH: EVQLVESGGGLVKPGGSLRLSCAASGFTFSSYAMSWVRQAPGKGLEWVSSISSSSEGIYYADSVKGRFTISRDNAKNSLYLQMNSLRAEDTAVYYCAREGGPYYDSSGYFVYYGMDVWGQGTTVTVSS VL: DIQMTQSPSTLSASVGDRVTITCRASNSISSWLAWYQQKPGKAPKLLIYEASSTKSGVPSRFSGSGSGTEFTLTISSLQPDDFATYYCQQYDDLPTFGGGTKVEIK please.
Ans. 3.82e+06

Qu. Tell me measured kon for ADI-11828 Fab (Fab, V domains shown, Fab fragment; also called Ab27) VH: EVQLVESGGGLVQPGGSLRLSCAASGFTFSSYWMSWVRQAPGKGLEWVANINQDGSEVYYVDSVKGRFTISRDNAKNSLYLQMNSLRAEDTAVYYCARDVGPGIAYQGHFDYWGQGTLVTVSS VL: DIQMTQSPSSLSASVGDRVTITCRASQSIYYYLNWYQQKPGKAPKLLIYAASSRQSGVPSRFSGSGSGTDFTLTISSLQPEDFATYYCQQVYDTPLTFGGGTKVEIK please.
Ans. 1.03e+06

Data origin: patent US20220380459A1
